Please respond with reported Ka for every item in the list.
- TESTED_ON: Albumin (Homo sapiens, UniProt P02768)
- Sequence (P02768 whole entry): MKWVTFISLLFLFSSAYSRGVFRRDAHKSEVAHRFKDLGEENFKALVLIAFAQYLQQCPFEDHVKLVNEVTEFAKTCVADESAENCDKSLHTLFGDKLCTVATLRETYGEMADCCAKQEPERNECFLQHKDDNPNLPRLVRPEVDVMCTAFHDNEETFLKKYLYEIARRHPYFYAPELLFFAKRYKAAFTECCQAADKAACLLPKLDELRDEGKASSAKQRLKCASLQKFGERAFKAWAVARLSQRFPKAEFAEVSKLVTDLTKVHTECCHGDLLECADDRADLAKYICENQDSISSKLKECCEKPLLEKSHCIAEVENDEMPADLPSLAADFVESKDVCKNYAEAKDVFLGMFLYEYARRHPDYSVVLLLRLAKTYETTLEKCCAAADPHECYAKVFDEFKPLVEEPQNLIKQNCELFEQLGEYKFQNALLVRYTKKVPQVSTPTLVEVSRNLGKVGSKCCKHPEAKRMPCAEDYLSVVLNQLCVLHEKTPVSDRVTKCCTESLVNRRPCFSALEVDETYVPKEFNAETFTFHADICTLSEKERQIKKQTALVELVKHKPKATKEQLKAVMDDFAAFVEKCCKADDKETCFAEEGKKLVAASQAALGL
- EXPERIMENTAL_DETAILS: Binding affinity to human serum albumin by circular dichroism and UV/VIS spectroscopic method
- Format: ADME
- CONDITION_SUMMARY: isolated protein
Form field: result (number plus unit)

stdin: Which Ka value belongs to COc1cc(C)c2c(Oc3cccc(C(F)(F)F)c3)c(OC)cc(NC(C)CCCN)c2n1 (configuration not stated) ?
stdout: 24000 M⁻¹

stdin: Which Ka value belongs to CCN(CC)Cc1cc(Nc2ccnc3cc(Cl)ccc23)ccc1O.Cl ?
stdout: 6200 M⁻¹

* * *

Please respond with reported Ka for every item in the list.
- TESTED_ON: UniProtKB P02768
- EXPERIMENTAL_DETAILS: Binding affinity to human serum albumin on sepharose column by affinity chromatography
- Type: ADME
- CONDITION_SUMMARY: isolated protein

stdin: Can you look up Ka on UniProtKB P02768 for CCN(CC)Cc1cc(Nc2ccnc3cc(Cl)ccc23)ccc1O.Cl ?
stdout: 2 10^4/M

stdin: Can you look up Ka on UniProtKB P02768 for COc1cc(C)c2c(Oc3cccc(C(F)(F)F)c3)c(OC)cc(NC(C)CCCN)c2n1 (stereo not given) ?
stdout: 3 10^5/M

stdin: Can you look up Ka on UniProtKB P02768 for CC(=O)O[C@H]1N=C(c2ccccc2Cl)c2cc(Cl)ccc2NC1=O ?
stdout: 2 10^4/M

stdin: Can you look up Ka on UniProtKB P02768 for CC(=O)O[C@H]1N=C(c2ccccc2)c2cc(Cl)ccc2NC1=O ?
stdout: 1 10^4/M

stdin: Can you look up Ka on UniProtKB P02768 for CCN(CC)CCCC(C)Nc1ccnc2cc(Cl)ccc12 (stereo not given) ?
stdout: 2 10^3/M

* * *

- TESTED_ON: Albumin (Homo sapiens)
- EXPERIMENTAL_DETAILS: Binding affinity to human serum albumin on sepharose column by affinity chromatography
- Format: ADME
- CONDITION_SUMMARY: isolated protein
Please respond with reported Ka for every item in the list.

stdin: Which Ka value belongs to COc1cc(NC(C)CCCN)c2ncccc2c1 (stereo not given) [PRIMAQUINE] ?
stdout: 7 10^3/M

stdin: Which Ka value belongs to CC(=O)O[C@@H]1N=C(c2ccccc2Cl)c2cc(Cl)ccc2NC1=O ?
stdout: 4 10^4/M

stdin: Which Ka value belongs to OC(c1cc(C(F)(F)F)nc2c(C(F)(F)F)cccc12)C1CCCCN1 (stereo not given) [MEFLOQUINE] ?
stdout: 8 10^4/M

stdin: Which Ka value belongs to CC(=O)O[C@@H]1N=C(c2ccccc2)c2cc(Cl)ccc2NC1=O ?
stdout: 8 10^4/M

stdin: Which Ka value belongs to CCN(CC)CCCC(C)Nc1c2ccc(Cl)cc2nc2ccc(OC)cc12 (stereo not given) [QUINACRINE] ?
stdout: 7 10^3/M

* * *

- Organism: Homo sapiens
- EXPERIMENTAL_DETAILS: Displacement of quinaldine red from human AAG by fluorescence method
Please respond with reported Ka for every item in the list.

stdin: Which Ka value belongs to COc1cc(NC(C)CCCN)c2ncccc2c1 (stereo not drawn) ?
stdout: 4.2 10^5/M

stdin: Which Ka value belongs to CC#C[C@]1(O)CC[C@H]2[C@@H]3CCC4=CC(=O)CCC4=C3[C@@H](c3ccc(N(C)C)cc3)C[C@@]21C ?
stdout: 4 10^6/M

stdin: Which Ka value belongs to CCN(CC)CCCC(C)Nc1ccnc2cc(Cl)ccc12 (stereo not drawn) ?
stdout: 0.3 10^5/M

stdin: Which Ka value belongs to OC(c1cc(C(F)(F)F)nc2c(C(F)(F)F)cccc12)C1CCCCN1 (stereo not drawn) ?
stdout: 8.7 10^5/M

stdin: Which Ka value belongs to CN(C)CCCN1c2ccccc2Sc2ccc(Cl)cc21 ?
stdout: 8.4 10^5/M

stdin: Which Ka value belongs to CC(C)NCC(O)COc1cccc2ccccc12 (racemic) ?
stdout: 1.5 10^5/M

stdin: Which Ka value belongs to CCN(CC)Cc1cc(Nc2ccnc3cc(Cl)ccc23)ccc1O ?
stdout: 1.1 10^5/M

stdin: Which Ka value belongs to COc1cc(C)c2c(Oc3cccc(C(F)(F)F)c3)c(OC)cc(NC(C)CCCN)c2n1 (stereo not drawn) ?
stdout: 1.8 10^6/M
